FYI, the data here is from ChEMBL document CHEMBL1201862.

system: CCRF-CEM; experiment: NCI tumour cell line growth inhibition, 48 h
Active and inactive are the calls of the source. Cut-off read from the data, not from the text of the source: active = GI50 up to about 1.1 µM and inactive = higher.
Output constraint: value belongs to true (active), false (inactive)

- compound: "O=c1c2cc(I)ccc2nc(S)n1Cc1ccccc1"
  measured target: "CCRF-CEM"
  group label: "false"
- compound: "COC(=O)C(Cc1nc2ccc(Cl)cc2nc1O)/C(=N/O)C(=O)Nc1cccc(Cl)c1C (stereo not drawn)"
  measured target: "CCRF-CEM"
  group label: "false"
- compound: "O=C(/C=C\\Nc1ccccc1O)C(Cl)(Cl)Cl"
  measured target: "CCRF-CEM"
  group label: "false"
- compound: "N#CC1=C(N)OC2=C(CSc3ccccc32)C1c1ccc(Br)cc1 (stereo not drawn)"
  measured target: "CCRF-CEM"
  group label: "false"
- compound: "O=C(COc1ccc(Cl)cc1)N1CCN(C(=O)COc2ccc(Cl)cc2)c2ccccc21"
  measured target: "CCRF-CEM"
  group label: "false"

Test call for this compound, please: O=C1C2C3C=C4c5ccccc5N(c5ccccc5)C4(C2C(=O)N1c1ccc(Cl)cc1)[C@H]1C(=O)N(c2ccc(Cl)cc2)C(=O)[C@@H]31 (stereo partly drawn)
false

How did this test come out for "c1ccc2c(c1)nc1ccccn12" ?
false

# lookup: test call for "CCN(CC)/[N+]([O-])=N/OCOC"
false

Write down the call the test reported for this compound. Item: "O=S(=O)(CF)OCCCCOS(=O)(=O)CF"
false

---

test system: OVCAR-4; assay: NCI tumour cell line growth inhibition, 48 h
Activity calls are given as the source filed them. Cut-off read from the data, not from the text of the source: active = GI50 up to about 1.1 µM and inactive = higher.
Assignment: determine reported GI50 for the given compounds.

Take a look at these entries with their results.
- compound: "COc1ccc(C2c3c(n(C)c(=O)n(C)c3=O)OC(N(C)C)(N(C)C)C2(F)F)cc1 (configuration not stated)"
  measured target: "OVCAR-4"
  GI50: "> 100 µM (inactive)"
- compound: "CSc1nc2c(ncn2C2OC(CO)C(O)C(O)C2O)c(=O)[nH]1 (configuration not stated)"
  measured target: "OVCAR-4"
  GI50: "> 100 µM (inactive)"
- compound: "O=c1[nH]c(=O)n([C@@H]2C[C@H](CO)[C@H](O)C2)cc1/C=C/Br"
  measured target: "OVCAR-4"
  GI50: "> 100 µM (inactive)"

For the 7 compounds below, give their GI50 values.
1. Cc1ccc(S(=O)(=O)N2CCc3cc(O)c([N+](=O)[O-])cc32)cc1
2. O=c1ccn([C@@H]2C[C@@H]2CO)c(=O)[nH]1
3. O=C(N/C(=C\c1ccc([N+](=O)[O-])cc1)c1nc2cc(Cl)ccc2[nH]1)c1ccccc1
4. CN(CCN)[C@H](CSSC[C@@H](c1ccccc1O)N(C)CCN)c1ccccc1O
5. O=C1CC(c2ccc(Cl)cc2)Oc2ccccc21 (configuration not stated)
6. CCOC(=O)C1(C#N)C(c2ccccc2)CC(O)(c2ccc([N+](=O)[O-])cc2)C(C(=O)c2ccc([N+](=O)[O-])cc2)C1c1ccccc1 (configuration not stated)
7. O=c1c2cc(I)ccc2nc(S)n1Cc1ccccc1

["> 100 µM (inactive)", "> 100 µM (inactive)", "15.7 µM (inactive)", "14.1 µM (inactive)", "43.4 µM (inactive)", "> 100 µM (inactive)", "9.71 µM (inactive)"]

Value sought for every listed compound: GI50.
1. C[C@H]1C[C@H]2[C@@H]3CCC4=CC(=O)C=C[C@]4(C)C3=CC[C@]2(C)[C@@]1(O)C(=O)CO
2. O=C(CSc1nnc(Cc2ccccc2)o1)Nc1cccc([N+](=O)[O-])c1
3. CC(=O)OCC1OC(N2C(=O)NC(=O)C3C=C4CCCCC4=CC32)CC1OC(C)=O (configuration not stated)
4. Cc1cc(C)c(S(=O)(=O)N(CCCCCCN)OCCCON(CCCCCCN)S(=O)(=O)c2c(C)cc(C)cc2C)c(C)c1

1: > 100 µM (inactive); 2: > 100 µM (inactive); 3: > 100 µM (inactive); 4: 1.67 µM (inactive)

Need GI50 for each of these compounds.
1. Cc1ccc(C(=O)/C=C2\Nc3ccccc3N=C2NC23CC4CC(CC(C4)C2)C3)cc1
2. O=C(/C=C/c1ccc(O)c([N+](=O)[O-])c1)CC(=O)/C=C/c1ccc(O)c([N+](=O)[O-])c1
3. CCc1cccc(C)c1NC(=O)C1=C(C)NC(C)=C(C(=O)Nc2c(C)cccc2CC)C1c1ccc([N+](=O)[O-])cc1
4. NC(=O)C1=C(c2ccccc2)c2ccccc2C1=O
5. O=C1C(Cl)C(c2ccccc2O)N1n1cnc2ccccc2c1=O (configuration not stated)
6. COC(c1ccccc1)C(c1ccccc1)N1CCOCC1 (configuration not stated)
7. Oc1ccc(-c2cc(-c3cc(-c4ccc(O)cc4)no3)on2)cc1
8. O=C(N/N=C/c1ccc([N+](=O)[O-])cc1)Nc1ccc(Br)cc1

1. 7.66 µM (inactive)
2. 79.3 µM (inactive)
3. 13.4 µM (inactive)
4. 18.5 µM (inactive)
5. 23.7 µM (inactive)
6. > 100 µM (inactive)
7. > 100 µM (inactive)
8. 49 µM (inactive)

Hi team, please reply with GI50 for each item in this list.
1. CC1=NN(C(=O)CC(=O)Nc2cccc(Cl)c2)C(=O)C1/N=N/c1ccc(C(=O)O)cc1 (configuration not stated)
2. CC1=C(C(=O)Nc2cccc3c2C(=O)NC3=O)CC(C(=O)Nc2cccc3c2C(=O)NC3=O)=C(C)N1
3. O=C(/N=C(\Nc1ccccc1)SCCS/C(=N/C(=O)c1cccs1)Nc1ccccc1)c1cccs1
4. CC(C)NC(=O)OCCN=c1c2ccccc2ccc2ccccc12
5. CCOP(=O)(OCC)[C@H]1OC(C)(C)O[C@@H]1CO

> 100 µM (inactive)
> 100 µM (inactive)
30.3 µM (inactive)
33.9 µM (inactive)
> 100 µM (inactive)

---

test system: SF-295; test: NCI tumour cell line growth inhibition, 48 h
Active and inactive are the calls of the source. Cut-off read from the data, not from the text of the source: active = GI50 up to about 1.1 µM and inactive = higher.
For each of the compounds below, state its GI50.

Take a look at these entries with their results.
- compound: "O=C1Nc2cccc3cc(NCC(O)CCl)cc1c23 (stereo unspecified)"
  GI50: "73.1 µM (inactive)"
- compound: "O=c1c2c3ccccc3[nH]c2c2cccc3c2n1CCC3"
  GI50: "37.7 µM (inactive)"
- compound: "O=C(O)c1cc([N+](=O)[O-])cc2c(=O)c3cnccc3[nH]c12"
  GI50: "> 100 µM (inactive)"
- compound: "O=C1C(Cl)C(c2ccccc2O)N1n1cnc2ccccc2c1=O (stereo unspecified)"
  GI50: "53.6 µM (inactive)"
- compound: "Cc1ccc(Sc2ccccc2[N+](=O)[O-])cc1"
  GI50: "21.6 µM (inactive)"
- compound: "COC(=O)c1ccc(/C=C2\\Cc3ccccc3C2=O)cc1"
  GI50: "> 100 µM (inactive)"

Below are 5 compounds. Give each one its GI50.
1. CCC[C@H]1C(=O)N=C(N)N1C(=O)OCc1ccccc1
2. O=C(O)CSc1ccc([N+](=O)[O-])cc1[N+](=O)[O-]
3. COc1ccc(/C(Cl)=C(\C=O)c2ccc(OC)c(OC)c2)cc1OC
4. O=C1OC(c2ccccc2)=N/C1=C\c1cccc(F)c1
5. O=C(O)CN1C=C(C(=O)c2cc3ccccc3n2S(=O)(=O)c2ccccc2)CCC1

["> 100 µM (inactive)", "> 100 µM (inactive)", "30.1 µM (inactive)", "40.8 µM (inactive)", "69.5 µM (inactive)"]

---

system: Malme-3M; assay: NCI tumour cell line growth inhibition, 48 h
The source made the active and inactive calls. Rule as the data show it: active = GI50 up to about 1.1 µM and inactive = higher.
Form entry, call: pick from active, inactive

- compound: "CCCCC(O)(c1ccccc1)C(O)(c1ccccc1)c1c(F)c(F)c(F)c(F)c1F (stereo not drawn)"
  group label: "inactive"
- compound: "Cn1c(C(C#N)c2cc(Cl)ncn2)nc2ccccc21 (stereo not drawn)"
  group label: "inactive"
- compound: "Nc1nc(Cl)cc(NCC2(CO)CCC(CCc3ccccc3)C2)n1 (stereo not drawn)"
  group label: "inactive"
- compound: "C/C1=C\\CC/C(C)=C/C=C(/C(C)C)CC/C(C(=O)O)=C/CC1"
  group label: "inactive"

Now consider a different compound.
Hi, do you know how COC(=O)C1Cc2cccc(C)c2C1 (stereo not drawn) came out in this test?
inactive

---

test system: SNB-19; test: NCI tumour cell line growth inhibition, 48 h
Activity calls are given as the source filed them. No stated cut-off is given here; in the data, active = GI50 up to about 1.1 µM and inactive = higher.
measured metric: GI50

These recorded examples may help you get a feel for the data.
- compound: "c1ccc(-c2cc3[nH]c4ccccc4[nH]c-3cc(-c3ccccc3)nn2)cc1"
  GI50: "41.6 µM (inactive)"
- compound: "NC(=O)C1=C(c2ccccc2)c2ccccc2C1=O"
  GI50: "17.7 µM (inactive)"
- compound: "O=c1cc(-c2ccccc2)nc(/C=C(\\O)c2ccncc2)n1-c1ccccc1"
  GI50: "> 100 µM (inactive)"

Please give GI50, item by item, for the list that follows.
1. O/N=C1/CC2(N3CCOCC3)C3CC/C(=N\O)C2CC1(Cc1ccccc1)C3 (stereo unspecified)
2. O=[N+]([O-])C(=C(Sc1ccccc1)Sc1ccccc1)C(Cl)=C(Cl)Cl
3. C=CCN(C(C)=O)c1cc(OCc2ccccc2)c2c(c1)c(C)cn2S(=O)(=O)c1ccccc1
4. COc1cc2c(cc1OC)[C@@H]([C@H](O)c1ccccc1)NCC2
5. c1csc(-c2nccc3c2[nH]c2ccccc23)c1
6. COc1cc(/C=N/NC(=O)c2c(Cl)c(Cl)c(Cl)c(Cl)c2-c2nc3cc(C(=O)c4ccccc4)ccc3[nH]2)ccc1O
7. C/C1=C\CC/C(C)=C/C=C(/C(C)C)CC/C(C(=O)O)=C/CC1

> 100 µM (inactive)
10.6 µM (inactive)
7.08 µM (inactive)
> 100 µM (inactive)
27.7 µM (inactive)
62.1 µM (inactive)
53.3 µM (inactive)

Name the reported GI50 value associated with the compound "COc1cc(OCc2ccc3nc(-c4ccccc4)c(N)nc3c2)cc(OC)c1OC"
24.2 µM (inactive)
